- target_of_assay: Cytochrome P450 3A4 (Homo sapiens)
- assay_details: Cytochrome panel assay with activity outcomes
- condition_label: recombinant CYP, pro-luciferin dealkylation, luminescence, p450-cyp3a4; series mostly up to 57.1 µM
Hit rate of the full screen: of about 16,000 compounds, about 5,100 (32%) were called active. Inconclusive results (about 25%) are left out. Calls come from the whole dose curve; as a rule, active = well fitted curve in the direction sought with a large enough effect; inconclusive = small, poorly fitted or top-dose-only effect, or effect the other way; inactive = no such curve, though single readings can be large or run the other way. This is one part of the list.
Assign a class; possible classes are 1.0 (active), 0.0 (inactive)

(Q) Please share the test call associated with `COc1ccc(C)cc1NC(=O)c1cc2cc3ccc(C)cc3nc2o1` .
(A) 0.0

(Q) Please share the test call associated with `CC[C@H](Cc1c(I)cc(I)c(N)c1I)C(=O)O` .
(A) 0.0

(Q) Please share the test call associated with Cc1ccc2cc3cc(C(=O)N4CCCCC4C)oc3nc2c1 (centres undefined) .
(A) 1.0

(Q) Please share the test call associated with `Cc1cccc(/C=N\Nc2cn[nH]c(=O)c2Cl)c1` .
(A) 1.0

----------
- target_of_assay: Cytochrome P450 3A4 (Homo sapiens) (UniProt P08684)
- Sequence (P08684 whole entry, looked up): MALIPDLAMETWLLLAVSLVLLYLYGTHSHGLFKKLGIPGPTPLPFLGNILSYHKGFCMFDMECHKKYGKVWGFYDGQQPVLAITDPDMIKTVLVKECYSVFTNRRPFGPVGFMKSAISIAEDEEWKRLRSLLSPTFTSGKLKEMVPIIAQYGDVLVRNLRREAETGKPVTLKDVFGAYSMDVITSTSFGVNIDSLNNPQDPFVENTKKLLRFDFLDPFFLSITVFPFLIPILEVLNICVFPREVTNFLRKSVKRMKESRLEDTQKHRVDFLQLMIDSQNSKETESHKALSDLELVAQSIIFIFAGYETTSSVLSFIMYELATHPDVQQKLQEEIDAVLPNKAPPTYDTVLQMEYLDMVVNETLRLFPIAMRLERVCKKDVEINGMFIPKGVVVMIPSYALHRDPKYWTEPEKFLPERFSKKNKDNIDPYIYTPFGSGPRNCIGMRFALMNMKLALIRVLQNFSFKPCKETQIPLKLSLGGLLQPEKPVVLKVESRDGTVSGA
- assay_details: Cytochrome panel assay with activity outcomes
- condition_label: recombinant CYP, pro-luciferin dealkylation, luminescence, p450-cyp3a4; series mostly up to 57.1 µM
Screen size: about 16,000 compounds; about 5,100 (32%) were called active. Not shown: some 25% with an inconclusive outcome. The call rests on the fitted dose curve; in most records, active means well fitted curve in the direction sought with a large enough effect; inconclusive means small, poorly fitted or top-dose-only effect, or effect the other way; inactive means no such curve, though single readings can be large or run the other way. Some of the results follow.
Assign a class; possible classes are TRUE (active), FALSE (inactive)

(Q) Please share the test call associated with `CCOc1ccc(NC(=S)NC(=O)/C=C/c2ccc(OC)c(OC)c2)c([N+](=O)[O-])c1` .
(A) FALSE

(Q) Please share the test call associated with `Cc1cc(NS(=O)(=O)c2ccc(NC(=O)CN3C(=O)c4ccccc4C3=O)cc2)nc(C)n1` .
(A) FALSE

(Q) Please share the test call associated with `Cc1ccc(OCC(=O)Nc2ccccc2-c2ccccc2)cc1` .
(A) TRUE

(Q) Please share the test call associated with `COc1cccc(-c2nccc(NCc3cccc(C)c3)n2)c1` .
(A) TRUE

(Q) Please share the test call associated with O=C(OC(C(=O)NC1CCCC1)c1ccncc1)C1=Cc2ccccc2OC1 (centres undefined) .
(A) TRUE

(Q) Please share the test call associated with `CC(C)=CC(=O)OCC(=O)Nc1ncc(Cl)c(C)c1Cl` .
(A) FALSE

(Q) Please share the test call associated with O=C(O)C1C2C=CC3(CN(Cc4ccccn4)C(=O)C13)O2 (centres undefined) .
(A) FALSE

(Q) Please share the test call associated with COc1ccc(OC)c(NC(=O)CC(Cc2ccccc2OC)C(=O)O)c1 (centres undefined) .
(A) FALSE

(Q) Please share the test call associated with `Cc1ccc(-c2ccc(=O)n(CC(=O)NCCN(C)C)n2)cc1` .
(A) FALSE

(Q) Please share the test call associated with `CCOC(=O)c1cnn(-c2nc(-c3cccc(F)c3)cs2)c1C(F)(F)F` .
(A) FALSE

(Q) Please share the test call associated with `Cc1cc(C(F)(F)F)n2nc(-c3cnn(C)c3C(F)(F)F)c(Cl)c2n1` .
(A) FALSE

(Q) Please share the test call associated with `CCCCNC(=O)C1CCN(Cc2ccccn2)CC1` .
(A) FALSE

(Q) Please share the test call associated with `CCCCOc1ccc(C(=O)N/C(=C\c2cccc([N+](=O)[O-])c2)C(=O)OCCC)cc1` .
(A) TRUE

(Q) Please share the test call associated with `O=C(CC1CCCC1)Nc1ccc2c(c1)CCC2` .
(A) TRUE

(Q) Please share the test call associated with `CC(=O)c1cccc(NC(=O)c2csc(-n3nc(C)cc3C(F)(F)F)n2)c1` .
(A) TRUE

(Q) Please share the test call associated with `CN1CCN(c2nc3cc(C(F)(F)F)ccc3n3cccc23)CC1` .
(A) FALSE

(Q) Please share the test call associated with `COc1ccc(C(=O)Nc2ccc(C(=O)OCC(=O)c3ccccc3)cc2)cc1` .
(A) FALSE

(Q) Please share the test call associated with `Cc1ccccc1CSc1nsc(N)n1` .
(A) TRUE

(Q) Please share the test call associated with `Cc1nc2c(n1C1CCCCC1)C(=O)c1ccccc1C2=O` .
(A) TRUE

(Q) Please share the test call associated with CCc1ccc(C(C(=O)NCc2ccc(OC)cc2)N(CCOC)C(=O)Cc2cccs2)cc1 (centres undefined) .
(A) TRUE

(Q) Please share the test call associated with `CSc1nc(C)c2c(n1)N(c1ccc(C(F)(F)F)cc1)CC2` .
(A) FALSE

(Q) Please share the test call associated with CCOC(=O)c1ccc(NC(=O)CC2NCCNC2=O)cc1 (centres undefined) .
(A) FALSE

(Q) Please share the test call associated with `COC(=O)[C@@]1(Cc2ccc(OC)cc2)[C@H]2c3cc(C(=O)N4CCCC4)n(CCc4c[nH]c5cc(F)ccc45)c3C[C@H]2CN1C(=O)c1ccccc1` .
(A) TRUE

(Q) Please share the test call associated with `COc1ccc2nc3oc(C(=O)NCc4cccs4)cc3cc2c1` .
(A) FALSE

(Q) Please share the test call associated with `C#CCOC(=O)Nc1ccc(=O)n(Cc2c(Cl)cccc2Cl)c1` .
(A) FALSE

(Q) Please share the test call associated with `CCCCCC(=O)O[C@H](CC(=O)O)C[N+](C)(C)C` .
(A) FALSE

(Q) Please share the test call associated with `CCS(=O)(=O)c1ccc(C(=O)Nc2ccccc2)c(Cl)c1Cl` .
(A) TRUE

(Q) Please share the test call associated with `COc1ccc(OCCn2c(C)c(/C=N/n3cnnc3)c3ccccc32)cc1` .
(A) TRUE

(Q) Please share the test call associated with `N[C@@H](Cc1cc(-c2ccc(Cl)cc2Cl)cc(CP(=O)(O)O)c1O)C(=O)O` .
(A) FALSE

(Q) Please share the test call associated with `Cc1ccc(C(=O)Oc2cc(C)n(C)c(=O)c2)cc1` .
(A) FALSE

(Q) Please share the test call associated with `O=C(COc1ccc(-c2ccccc2)cc1)N/N=C/c1ccccc1Br` .
(A) TRUE

(Q) Please share the test call associated with `CCOC(=O)c1ccc(NC(=O)COc2ccccc2OC)cc1` .
(A) TRUE

(Q) Please share the test call associated with `Cc1ccc2oc(-c3cccc(NC(=S)NC(=O)/C=C/c4ccco4)c3)nc2c1` .
(A) TRUE

(Q) Please share the test call associated with `Cc1ccc(S(=O)(=O)Nc2ccc(=O)n(Cc3ccc(Cl)c(Cl)c3)c2)cc1` .
(A) TRUE

(Q) Please share the test call associated with `Cc1ccc(OCC(=O)NNC(=O)CCc2ccccc2)cc1` .
(A) FALSE

(Q) Please share the test call associated with `N#CCSc1ncnc2c1cnn2CCO` .
(A) FALSE

(Q) Please share the test call associated with `Cc1[nH]nc(N2CCCCCC2)c1[N+](=O)[O-]` .
(A) FALSE

(Q) Please share the test call associated with `COc1cccc(-c2nccc(NCc3cccs3)n2)c1` .
(A) TRUE

(Q) Please share the test call associated with `Cc1cccc(-c2noc(-c3cc4ccccc4oc3=O)n2)c1` .
(A) TRUE
